system: MDA-MB-468 breast; test: NCI tumour cell line growth inhibition, 48 h
// label = 1 if TGI is not less than 4 µM, otherwise 0

Please review the entries below; each comes with its answer.
Cc1ccc(-c2csc(/N=C3\C(=O)Nc4ccccc43)n2)cc1 : 0
CCOC(=O)c1sc(-c2ccc(OS(=O)(=O)c3ccc(Br)s3)c(C=O)c2)nc1C : 1

Q. Exam item: decide whether the reported TGI for `Cc1nn(-c2nc3ccccc3[nH]2)c(N)c1-c1ccc(Cl)cc1` is at least 4 µM.
A. 1

Q. What do you get for `Fc1ccc2[nH]cc(-c3nonc3-c3c[nH]c4ccc(Br)cc34)c2c1` ?
A. 1
